These data points were gathered from a melting point compilation (Tetko et al.; mined from patent text by program, amines drawn as free bases though some values may be those of a salt).

endpointName: melting point

Example entries and their recorded answers appear below.
compound	valueMeasured
NC(=O)c1ccc2[nH]cc(CCCCN3CC=C(c4ccccc4)CC3)c2c1	200 to 205 °C
O=C(C[N+](=O)[O-])OCCSc1ccccc1	22 to 24 °C
CC1CN(S(=O)(=O)c2cccc(C(=O)O)c2)C(C)CN1S(=O)(=O)c1cccc(C(=O)O)c1 (stereo not drawn)	223 to 227 °C

Now consider the entry below.
For CS(=O)(=O)NCCn1nnnc1S the compound record lists melting point as 131 to 132 °C

* * *

# melting point annotations

Example entries and their recorded answers appear below.
compound	valueMeasured
Cc1ccc(S(=O)(=O)N2CCc3ccccc3C(Oc3ccccc3)C2)cc1 (centres undefined)	155 to 156 °C
Cn1cc(C2=C(c3cn(CCCN=[N+]=[N-])c4ccccc34)C(=O)NC2=O)c2ccccc21	222 to 224 °C
COc1ccc(C)cc1OCCO	42 to 43 °C
CC(=O)Oc1ccc(-c2cnc(C)nc2Cl)cc1OC(C)=O	111 °C
O=C(Nc1ccc2oc(=O)[nH]c2c1)C(=O)N1CCC(Cc2ccc(F)cc2)CC1	226 to 231 °C

For COC(=O)c1cc2ccccc2n1-c1ccccn1 the compound record lists melting point as 158 to 159 °C

For CC(=O)Nc1ccc(S(=O)(=O)Nc2cccnc2Nc2ccccc2)cc1 the compound record lists melting point as 234 to 236 °C

For O=c1ccc2ccc(OCC(O)CO)cc2o1 (centres undefined) the compound record lists melting point as 118 to 120 °C

For N#Cc1ccc(OCc2ccccc2)cc1OCc1ccccc1 the compound record lists melting point as 100 °C

For O=c1nc(C2CC2)sc2ccccc12 the compound record lists melting point as 120 °C

For CCCCCOc1ccc(C(=O)OC(C)C(C)OC(=O)c2ccc(OCCCCC)cc2)cc1 (centres undefined) the compound record lists melting point as 52 °C

For O=C(CCl)c1cccnn1 the compound record lists melting point as 104 to 106 °C

For O=C(CCc1ccccn1)Nc1cc(N2CC(c3ccccc3)OC2=O)ccn1 (centres undefined) the compound record lists melting point as 169 to 171 °C

For CC1(C)c2ccccc2C(C)(C)N1O the compound record lists melting point as 128 to 130 °C

* * *

endpointName: melting point (°C)
The reply should contain only the number, in °C.

For O=S(=O)(c1ccccc1)N1CCCC1c1ccccc1 (racemic) the compound record lists melting point as 116

For O=Cc1cc(Oc2ccc(C(F)(F)F)cc2Cl)ccc1[N+](=O)[O-] the compound record lists melting point as 95

* * *

# melting point annotations

Example entries and their recorded answers appear below.
molecule	endpointName	valueMeasured
COc1ccc(NN=C(Sc2cc(Cl)cc(Cl)c2)C(C)=O)cc1	melting point	168 to 170 °C
Nc1cc(N2CCNCC2)ccc1[N+](=O)[O-]	melting point	159 to 160 °C
COc1ccc2[nH]cc(CCCCN3CC=C(c4cccs4)CC3)c2c1	melting point	158 °C
Nc1nc(N)c(NC=O)c(Cl)n1	melting point	> 300 °C
NS(=O)(=O)c1ccccc1CN1CCCC1	melting point	110 to 112 °C
CON(C)C(=O)Nc1ccc(OCCc2ccc3c(c2)CC(C)(C)O3)nc1	melting point	79 to 80 °C
COC(=O)c1c(C(=O)OC)c(-c2ccc(OC)cc2)c2cc3c(cc2c1O)OCO3	melting point	169 to 171 °C
CCN1C(=O)C(C)(C)C(=O)N(C)c2cc(CN(CCn3ccc4oc(C)cc4c3=O)Cc3cccnc3)ccc21	melting point	124 to 127 °C
C=CCOc1ccc(-c2nc3cnccc3[nH]2)c(OC(C)C)c1	melting point	179 °C
CCOc1ccc(C(=O)N(CC)CC)c(OCC)c1	melting point	45 to 56 °C

For C[Si](C)(C)C#Cc1ccc2c(c1)C(=O)N(c1ccc3c(c1)C=C3)C2=O the molecule record lists melting point as 192 to 193 °C

For Nc1nc2ccccc2c2c1ncn2CCSc1ccccc1 the molecule record lists melting point as 233 to 235 °C

For CCCCC1(CCCC)CCc2c(OCc3ccccc3C(N)=O)cccc2C1O (stereo not given) the molecule record lists melting point as 73 to 75 °C

For CCOP(=O)(Cc1nnc2c(=O)[nH]c3ccc(C(F)(F)F)cc3n12)OCC the molecule record lists melting point as 204 to 208 °C

For O=C(Nn1c(=O)c(=O)[nH]c2ccc3ccccc3c21)c1ccccc1 the molecule record lists melting point as > 300 °C

For NCCNc1cc(-n2cccn2)nc(-c2ccco2)n1 the molecule record lists melting point as 104 to 105 °C

For CN1Cc2c(n(-c3ccc(F)cc3)c3ccc(F)cc23)C1 the molecule record lists melting point as 160 to 165 °C

For O=C(O)COC(c1cccc(-c2nnc(Nc3ccc(Cl)c(Cl)c3)s2)c1)c1cccc(C(F)(F)F)c1 (stereo not given) the molecule record lists melting point as 89 to 91 °C

* * *

# melting point annotations

molecule	melting point
COc1ccc(CN2CCC(c3cn(Cc4ccoc4)c4ncccc34)CC2)cc1C(=O)O	230 to 232 °C
CCOCc1nc2c(N)nc3ccccc3c2n1C[C@H]1COC(C)(C)O1	130 to 131 °C
NC(=O)CNC(=O)COC[C@@H]1CCCN1C(=O)OCc1ccccc1	110 to 111 °C
COCCC(=O)c1cc(C(=O)OC)c(N)cc1C(F)(F)F	89 to 91 °C
CN(C)CCc1nnc2n1-c1ccc(Cl)cc1C(c1ccccc1Cl)=NC2	150 to 153 °C

Now consider the entry below.
For COc1cccc(-c2ccc(-c3ccc(C(=O)O)cc3)cc2-c2ccc3c(c2)C(C)(C)CCC3(C)C)c1 the molecule record lists melting point as 116 to 118 °C

* * *

# melting point annotations

compound	valueMeasured
Cn1ncc(C(=O)NN)c1S(N)(=O)=O	172 to 173 °C
CCc1cc(NC(=O)c2ccc(OC)c(OC)c2)ccc1C(C)(C)CNC(C)=O	203 to 206 °C
CSc1cc(C)c(O)c(C)c1SC	98 to 100 °C

For CSc1nn(Cc2cccc(C(F)(F)F)c2)c(N)c1C#N the compound record lists melting point as 142 °C

* * *

endpointName: melting point

Example entries and their recorded answers appear below.
compound	endpointName	valueMeasured
O=C(c1ccccc1)N1Cc2[nH]c3ccccc3c(=O)c2C1	melting point	275 °C
CS(=O)CCC(=N)NS(N)(=O)=O (stereo not given)	melting point	141 to 144 °C

For CCOc1cc2cc(C(=O)N3CC(CCl)c4c3cc(N3C(=O)c5ccccc5C3=O)c3ncccc43)[nH]c2c(OCC)c1OCC (stereo not given) the compound record lists melting point as 189 to 191 °C

For CC(C)CC(C(=O)O)c1ccc(-c2ccc(C(F)(F)F)cc2)c(OCC2CC2)c1 (stereo not given) the compound record lists melting point as 142 to 143 °C

For CC(C)Sc1c(C(N)=O)sc2cccc(Cl)c12 the compound record lists melting point as 182 to 184 °C

* * *

# melting point annotations

Example entries and their recorded answers appear below.
compound	melting point
CS(=O)(=O)c1ccc(-c2cc3n(c2-c2ccc(F)cc2)CCC3)cc1	154 °C
O=C1Nc2cccnc2N(C(=O)NCCN2CCC(CCCN3CCCCC3)CC2)c2ccccc21	192 to 193 °C
COc1cc(OC)c(CSC(C)(C)CC(=O)O)c(OC)c1	103 to 105 °C
O=C1OC(=O)c2c(F)cc(F)cc21	87 to 89 °C
CC(C)N(C(=O)CC(c1ccccc1)c1cc(Br)ccc1OCc1ccccc1)C(C)C (stereo not drawn)	102 °C

For CC(=O)OCCCn1c(NC(=O)c2cccs2)nc2cc(C(=O)N(C)C3CCCCC3)ccc21 the compound record lists melting point as 74 to 76 °C

For CN(C)CCCSc1ccc2ccc(N)nc2n1 the compound record lists melting point as 164 °C

For COc1ccc2c(Br)csc2c1 the compound record lists melting point as 62 °C

For CNCCc1ccc2[nH]c(C)c(C(=O)OCc3ccccc3)c2c1 the compound record lists melting point as 65 to 68 °C

For CN1C(=O)CN=C(c2ccccc2F)c2cc(NC(=O)N3CC3)ccc21 the compound record lists melting point as 186 to 190 °C

For OC(c1ccccc1)C(NCc1ccco1)c1ccccc1 (stereo not drawn) the compound record lists melting point as 141 to 144 °C

For CCOC(=O)C1=Cc2cc(Cl)c(O)cc2OC1C(F)(F)F (stereo not drawn) the compound record lists melting point as 118 to 125 °C

For CN(C)C[C@@H]1C(=O)N[C@H]1SC(c1ccccc1)(c1ccccc1)c1ccccc1 (relative stereo) the compound record lists melting point as 129 to 131 °C

* * *

endpointName: melting point

Example entries and their recorded answers appear below.
compound	melting point
COc1ccc(N2CC(CCN3CCC(O)(c4ccc5c(c4)OCO5)CC3)OC2=O)cc1 (centres undefined)	128 to 130 °C
OC1c2cc(OCc3nc4cc(F)ccc4s3)ccc2OCC1Oc1ccccc1 (centres undefined)	144 to 145 °C
N#Cc1cccc(CSc2nnc(-c3ccc4nccn4c3)o2)c1	175 to 176 °C

For CCCc1c(OCCCCCCc2cc(OC)c(OC)c(C(C)C)c2)ccc(C(=O)O)c1O the compound record lists melting point as 106 to 108 °C
